Every entry's value here was drawn from the supplement of paper PMC9170038.

- Test system: K4 kissing-loop RNA reporter;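 further: bound reporter read as fluorescence of individual clusters on recovered sequencing chips by microscopy, with normalized cluster intensities fitted with a binding model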
- experimentalProtocol: apparent KD of K4 kissing-loop reporter; higher = weaker reporter binding
- conditionParameters: Eterna round: R107; input ligand: theophylline 20 uM

entrySequence	target	unitSpec	apparent KD of K4 kissing-loop reporter
UGAACUGUCUGCGAUACCAGCUAAGGAGUGAUGUUCCGGCUCGACGAAACGUCGAGCCAUAGCCCUUGGCAGCGCAGACAGUUCA [#28 K4 Theophylline B Same State]	K4 kissing-loop RNA reporter	µM	0.721
GGCAUGCGUAGAGUGAUGUUCUAAGAUGAUACCAGUGCGGAAACGCACCCUUGGCAGCAUCUGACGAGCAUGCCGGCGAAAGCCU	K4 kissing-loop RNA reporter	µM	0.607
AUUCUGUUUUUGAUGUUUAUUGUAUAAUGGCAGGAUAUCGUAGAAGCGAGAAGGGCUUUUAUGCGUUAUGAGUGAUGUUUGUAGG [eyeefvmullin]	K4 kissing-loop RNA reporter	µM	0.319
ACAUUAGCGAGUGAUGUUCGCUAAGACGAAGGAGCGCUCGCGAGAGCAGGUAGGUCGCGUCUAGUGUCACUGUACUAAAUAGUGA [Arg A SS t12]	K4 kissing-loop RNA reporter	µM	0.183
GCCGUACGCAUGGAUACCAGCAAUCAAACGUCAUGCGAAGUGAUGUUUCGCUUACGGUAGUGCCCUUGGCAGCCAUGCGUACGGC	K4 kissing-loop RNA reporter	µM	0.0912
AGGUGCUACGGAAGGAGCGCACCAGUGAUGUUGGUGUGUGACCGUGACAUGGCAGUCAAGGUGCAGGUAGGUCGCCGUGGCCUUU [Geeseris]	K4 kissing-loop RNA reporter	µM	0.138
GAUUUAGAGGCGGCCGCCACUAGUGAUGUUAGUGAUGUUUGAUAGGGAAUAUAUCAGCGAGUAGAUAGGACCGGGCCAGAUGGAG [gtggbmullin]	K4 kissing-loop RNA reporter	µM	0.189
AAUACGCCGAAAGGAUAUAUAGAACAUCAAGGGCGCUGACUUUGCUAAAUCACAAGUGAUGUUUGUAUAGAAGGUUCGCAGUCAA [theeternabot_exclusion_KL_FMN_B_30]	K4 kissing-loop RNA reporter	µM	0.452
AAGAAUGCAGGAAGGAGCGGCGGACGGAGUGAUGUUCCGGCUAGUGAUGUUAGCAAACACCGCCAGGUAGGUCGCCUGCUGCCCU [Same State Arginine B GF 6]	K4 kissing-loop RNA reporter	µM	0.153
UGUACCGAGUCAGGAUAUGGCGUCGAAAGACGAAUCCUAGUGAUGUUAGUGAUCUGCGAAAGCAGUCCAGAAGGGACUUGGUACU [FmnBS 26 U50]	K4 kissing-loop RNA reporter	µM	0.307
UGGAGUUGACGAAAAGUCAACUCCCGAGAAGGAGCGGACGAAAGUCCAGGUAGGUCGCUCGCUACCAGUGAUGUUGGUACGUAAA	K4 kissing-loop RNA reporter	µM	0.139
CCAUCGCUAUUCGAUACCAGCCAAGAGGUCUUUGGCCUCUUAAUGGAGUGAUGUUCCAUUGGCCCUUGGCAGCGAAUAGUGAUGG [Theophylline B K4 18]	K4 kissing-loop RNA reporter	µM	0.823
UUAGCUCUAUAGAGCAAGAGGUAUACUGAUACCAGAGGCUAUAGCCUCCCUUGGCAGCGGAACGAGUGAUGUUCGAAACCUCAUU [AK5 SS Theophylline A]	K4 kissing-loop RNA reporter	µM	0.799
AAAACUAUCAGAAGGAGCGUGGAAUAUUCAUCUGUAUCUAAUACGAGUGAUGUUCGUAAUUCACAGGUAGGUCGCUGAUCAAUAA [whbob_Ex_Arginine_B_2th155]	K4 kissing-loop RNA reporter	µM	0.25
GAUGUUUGCCGAAGGAGCGAGUAUUCGCCAGUGAUGUUGGUGAGAUAUACACGUAUCAGUGCUCAGGUAGGUCGCGGCGCUUGUU [Same State Arginine B GF 27]	K4 kissing-loop RNA reporter	µM	0.135
UGUCAUUGGUCGGCCGCCACUAUAAUAAAAGAGUGAUGUUCUAAAAGACGGACAAAAGUCUGUCGUAGGACCGGGACCGAUGACU [TrypBS 26 #SwitchBubble #StaticStem]	K4 kissing-loop RNA reporter	µM	0.916
AAAACUAUCAGAAGGAGCGUGGAAUAUACAUCUAUAUUUAAUACGAGUGAUGUUCGUAAUUCACAGGUAGGUCGCUGAUCAAUAA [whbob_Ex_Arginine_B_2th153]	K4 kissing-loop RNA reporter	µM	0.359
AUUUUGGUUUAGAGUGAUGUUCCUUGUGUUCGAGGACCGGUACGGCCGCCACUCGGGUAGAAAAGAAAAGAAAUGUUUGAUUUUU [BDazzled - #10 SS Tryptophan A]	K4 kissing-loop RNA reporter	µM	0.0928
CGGAGUGAUGUUCCUUUUAUUAAUUAUUUACGAGGACCGGUACGGCCGCCACUCGAUUUAGCUUUUAUUUAAUGCUUGGAUGUUU [JR_SSTryptoA_Sub004]	K4 kissing-loop RNA reporter	µM	0.208
AGCGGCCAGUCGGCCGCCACUCCAGGCAGUGAUGUUGCGAAGUUUCUACUAGAGUGAUGUUCUAAGAGGACCGGGACUGACGUAA [Exclusion Tryptophan B Gf 9]	K4 kissing-loop RNA reporter	µM	0.291
UAAUGUGGCACAGGAUAUACUGAUUGGAGUGAUGUUCCAAACAUGGACGUGAGACUUUUACAAGAAGUAGAAGGGUGUUAGAUAU [Exclusion FMN B GF 20]	K4 kissing-loop RNA reporter	µM	0.448
AACCACUCGUUACAUCACUAUCGAGUGGAACGAGGACCGGUACGGCCGCCACUCGAUAAGAUGCAGUGAUGUUGCAUCUAAGAAU [KL-SSTryp-A (BrourdMod)5 #dotplot2 strengthened]	K4 kissing-loop RNA reporter	µM	0.192
AAGGCCACGAGAAGGAGCGUGCUGUGGAGUGAUGUUCCAUUGUAGACCUAAGGUCUACGAGCACAGGUAGGUCGCUCGUGGUCAA [Omei KL Arginine B SS A v4]	K4 kissing-loop RNA reporter	µM	0.102
